TARGET_OR_TEST_SYSTEM: T1, human CD28 (human, UniProt P10747 19-152, limits assumed)
T1 construct: also called Cluster of Differentiation 28; Tp44
TEST: selection from yeast-presented synthetic human antibody libraries
MEASURED_ATTRIBUTE: binding result

Problem: Find the measured binding result of Ab No. 1 (antibody, V domains shown, IgG format) VH: QVQLVQSGAEVKKPGASVKVSCKASGYTFTSYAMHWVRQAPGQRLEWMGWINAGTGATKYSQKFQGRVTITRDTSASTAYMELSSLRSEDTAVYYCAKDIGSGFYELSLDYWGQGTLVTVSS VL: DIQMTQSPSSVSASVGDRVTITCRASQGISSWLAWYQQKPGKAPKLLIYAASNLQSGVPSRFSGSGSGTDFTLTISSLQPEDFATYYCQQIISLPLTFGGGTKVEIK and report it.
Solution: binds

Problem: Find the measured binding result of Ab No. 7 (antibody, V domains shown, IgG format) VH: QVQLVQSGAEVKKPGSSVKVSCKASGGTFSSYAISWVRQAPGQGLEWMGGIIPISGTANYAQKFQGRVTITADESTSTAYMELSSLRSEDTAVYYCAKGGFGAPLPTWGQGTLVTVSS VL: DIQMTQSPSSLSASVGDRVTITCRASQSISSYLNWYQQKPGKAPKLLIYSASSLQSGVPSRFSGSGSGTDFTLTISSLQPEDFATYYCQQGSSVPFTFGGGTKVEIK and report it.
Solution: binds
